Assay: Water solubility test (observation and HPLC)
Format: physicochemical
Details: thermodynamic from solid
Entries and their solubility values follow.

INSERT INTO results (compound, reported_endpoint, recorded_result) VALUES
  ('CC(NC(=O)CCCN1C(=O)C=CC1=O)C(=O)NC(C)C(=O)NC(CC(N)=O)C(=O)Nc1ccc(COC(=O)N2CC3(C2)C(=O)[O][Pt-2]([NH3+])([NH3+])[O]C3=O)cc1 (centres unmarked) [QHL-143-N-CBP]', 'solubility', '> 10000 µg/mL');

For the next question, use this compound.
Qu. Data request, read-out solubility, for CC(NC(=O)CCOCCOCCOCCOCCNC(=O)CCN1C(=O)C=CC1=O)C(=O)NC(C)C(=O)NC(CC(N)=O)C(=O)Nc1ccc(COC(=O)N2CC3(C2)C(=O)[O][Pt-2]([NH3+])([NH3+])[O]C3=O)cc1 (centres unmarked) [QHL-092-N-CBP]
Ans. > 10000 µg/mL

====

Assay: Water solubility test (observation and HPLC)
Assay type: physicochemical
Conditions: thermodynamic from solid
Experimental: The compounds prepared in accordance with the examples of the disclosure and the reference compounds C1, C2, C3 and C4 were lyophilized (−70° C.).
Where a SMILES comes first, the peptide text is derived from it. [ ]: non-standard residue; d: D form. The star is where a group is joined. Doxorubicin(3'-N) = COc1cccc2c1C(=O)c1c(O)c3c(c(O)c1C2=O)C[C@@](O)(C(=O)CO)C[C@@H]3O[C@H]1C[C@H](N*)[C@H](O)[C@H](C)O1; Thyronine(3,5,3'-I3) = N[C@@H](Cc1cc(I)c(Oc2ccc(O)c(I)c2)c(I)c1)C(=O)O; Hexanoyl(6-maleimido) = O=C1C=CC(=O)N1CCCCCC(=O)*; Propanoyl(3-maleimido) = O=C1C=CC(=O)N1CCC(=O)*; PEG3 = NCCOCCOCCOCCC(=O)O
Reported solubility is given for each of the following molecules.

Examples with answers:
INSERT INTO assay_data (molecule, recorded_result) VALUES
  ('C[C@H](NC(=O)CCOCCOCCOCCNC(=O)CCN1C(=O)C=CC1=O)C(=O)N[C@@H](C)C(=O)N[C@H](CC(N)=O)C(=O)N[C@@H](Cc1cc(I)c(Oc2ccc(O)c(I)c2)c(I)c1)C(=O)O [QHL-158-T3] ({Propanoyl(3-maleimido)-PEG3}-AA[dN][Thyronine(3,5,3''-I3)]-OH)', '> 10000 µg/mL'),
  ('CCOCc1nc2c(NC(=O)OCc3ccc(NC(=O)[C@H](CC(N)=O)NC(=O)[C@H](C)NC(=O)[C@H](C)NC(=O)CCOCCOCCOCCOCCOCCOCCN4C(=O)C=CC4=O)cc3)nc3ccccc3c2n1CC(C)(C)O', '> 10000 µg/mL'),
  ('COc1cccc2c1C(=O)c1c(O)c3c(c(O)c1C2=O)C[C@@](O)(C(=O)CO)C[C@@H]3O[C@H]1C[C@H](NC(=O)[C@H](CC(C)C)NC(=O)[C@H](CC(N)=O)NC(=O)[C@H](C)NC(=O)[C@H](C)NC(=O)CCCCCN2C(=O)C=CC2=O)[C@H](O)[C@H](C)O1 [EMC-AANL-DOX] ({Hexanoyl(6-maleimido)}-AANL-{Doxorubicin(3''-N)})', '< 5000 µg/mL');

// next item, solubility requested
Qu. Any idea what solubility was measured for CCOCc1nc2c(NC(=O)OCc3ccc(NC(=O)[C@H](CC(N)=O)NC(=O)[C@H](C)NC(=O)[C@H](C)NC(=O)CCOCCOCCOCCOCCOCCOCCNC(=O)CCN4C(=O)C=CC4=O)cc3)nc3ccccc3c2n1CC(C)(C)O ?
Ans. > 10000 µg/mL

====

Items are presented alongside their recorded solubility.
Assay: Water solubility test (observation and HPLC)
Assay type: physicochemical
Settings: thermodynamic from solid
Where a SMILES comes first, the peptide text is derived from it. [ ]: non-standard residue; d: D form. The star is where a group is joined. ξ: configuration not given here. Doxorubicin(3'-N) = COc1cccc2c1C(=O)c1c(O)c3c(c(O)c1C2=O)C[C@@](O)(C(=O)CO)C[C@@H]3O[C@H]1C[C@H](N*)[C@H](O)[C@H](C)O1; X2 = CC(C)(C)c1nc(-c2cccc(NS(=O)(=O)c3c(F)cccc3F)c2F)c(-c2ccnc(N*)n2)s1; Thyronine(3,5,3'-I3) = N[C@@H](Cc1cc(I)c(Oc2ccc(O)c(I)c2)c(I)c1)C(=O)O; Propanoyl(3-maleimido) = O=C1C=CC(=O)N1CCC(=O)*; X1 = O=C1C=CC(=O)N1CCOCCOCCOCCC(=O)*; PEG6 = NCCOCCOCCOCCOCCOCCOCCC(=O)O; MeOCH2CH2OCH2CO = COCCOCC(=O)*; PEG2 = NCCOCCOCCC(=O)O; ξL = CC(C)CC(N)C(=O)O

Examples from the recorded data:
INSERT INTO measurements (molecule, reported_endpoint, recorded_result) VALUES
  ('C[C@H](NC(=O)CCOCCOCCOCCN1C(=O)C=CC1=O)C(=O)N[C@@H](C)C(=O)N[C@H](CC(N)=O)C(=O)N[C@@H](Cc1cc(I)c(Oc2ccc(O)c(I)c2)c(I)c1)C(=O)O [QHL-154-T3] (X1-AA[dN][Thyronine(3,5,3''-I3)]-OH)', 'solubility', '> 10000 µg/mL'),
  ('CC(C)CC(NC(=O)[C@@H](CC(N)=O)NC(=O)[C@@H](C)NC(=O)[C@@H](C)NC(=O)CCOCCOCCNC(=O)CCN1C(=O)C=CC1=O)C(=O)Nc1nccc(-c2sc(C(C)(C)C)nc2-c2cccc(NS(=O)(=O)c3c(F)cccc3F)c2F)n1 (stereo partly shown) [QHL-087-dabrafenib] ({Propanoyl(3-maleimido)-PEG2}-[dA][dA][dN][ξL]-X2)', 'solubility', '> 10000 µg/mL'),
  ('C[C@H](NC(=O)CCOCCOCCOCCOCCOCCOCCNC(=O)CCN1C(=O)C=CC1=O)C(=O)N[C@@H](C)C(=O)N[C@H](CC(N)=O)C(=O)N[C@@H](Cc1cc(I)c(Oc2ccc(O)c(I)c2)c(I)c1)C(=O)O [QHL-160-T3] ({Propanoyl(3-maleimido)-PEG6}-AA[dN][Thyronine(3,5,3''-I3)]-OH)', 'solubility', '> 10000 µg/mL'),
  ('COCCOCC(=O)N[C@@H](C)C(=O)N[C@@H](C)C(=O)N[C@@H](CC(N)=O)C(=O)N[C@@H](CC(C)C)C(=O)N[C@H]1C[C@H](O[C@H]2C[C@](O)(C(=O)CO)Cc3c(O)c4c(c(O)c32)C(=O)c2c(OC)cccc2C4=O)O[C@@H](C)[C@H]1O [C4 PEG-AANL-DOX, reference compound] (MeOCH2CH2OCH2CO-AANL-{Doxorubicin(3''-N)})', 'solubility', '< 5000 µg/mL'),
  ('CC(NC(=O)CCOCCOCCOCCOCCOCCOCCNC(=O)CCN1C(=O)C=CC1=O)C(=O)NC(C)C(=O)NC(CC(N)=O)C(=O)Nc1ccc(COC(=O)N2CC3(C2)C(=O)[O][Pt-2]([NH3+])([NH3+])[O]C3=O)cc1 (stereo not shown)', 'solubility', '> 10000 µg/mL');

Qu. Item under review: CCOCc1nc2c(NC(=O)OCc3ccc(NC(=O)[C@H](CC(N)=O)NC(=O)[C@H](C)NC(=O)[C@H](C)NC(=O)CCOCCOCCOCCOCCOCCOCCOCCOCCOCCOCCOCCOCCN4C(=O)C=CC4=O)cc3)nc3ccccc3c2n1CC(C)(C)O . Reported solubility?
Ans. > 10000 µg/mL

Qu. Endpoint output: solubility of C[C@@H](NC(=O)CCOCCOCCOCCNC(=O)CCN1C(=O)C=CC1=O)C(=O)N[C@H](C)C(=O)N[C@H](CC(N)=O)C(=O)Nc1ccc(COC(=O)Nc2c(-c3nc4ccc(N5CCN(C)CC5)cc4[nH]3)c(=O)[nH]c3cccc(F)c23)cc1 . Value?
Ans. > 20000 µg/mL

====

solubility for assorted molecules
Assay: Water solubility test (observation and HPLC)
Format: physicochemical
Conditions: thermodynamic from solid
Where a SMILES comes first, the peptide text is derived from it. [ ]: non-standard residue; d: D form. The star is where a group is joined. ξ: configuration not given here. X2 = CC(C)(C)c1nc(-c2cccc(NS(=O)(=O)c3c(F)cccc3F)c2F)c(-c2ccnc(N*)n2)s1; Thyronine(3,5,3'-I3) = N[C@@H](Cc1cc(I)c(Oc2ccc(O)c(I)c2)c(I)c1)C(=O)O; Hexanoyl(6-maleimido) = O=C1C=CC(=O)N1CCCCCC(=O)*; Propanoyl(3-maleimido) = O=C1C=CC(=O)N1CCC(=O)*; PEG3 = NCCOCCOCCOCCC(=O)O; PEG2 = NCCOCCOCCC(=O)O; ξL = CC(C)CC(N)C(=O)O

Reference set, count: 5
INSERT INTO results (molecule, recorded_result) VALUES
  ('CC(C)CC(NC(=O)[C@@H](CC(N)=O)NC(=O)[C@@H](C)NC(=O)[C@@H](C)NC(=O)CCOCCOCCOCCNC(=O)CCN1C(=O)C=CC1=O)C(=O)Nc1nccc(-c2sc(C(C)(C)C)nc2-c2cccc(NS(=O)(=O)c3c(F)cccc3F)c2F)n1 (some centres unmarked) [QHL-090-dabrafenib] ({Propanoyl(3-maleimido)-PEG3}-[dA][dA][dN][ξL]-X2)', '> 10000 µg/mL'),
  ('C[C@@H](NC(=O)CCOCCOCCNC(=O)CCN1C(=O)C=CC1=O)C(=O)N[C@H](C)C(=O)N[C@H](CC(N)=O)C(=O)Nc1ccc(COC(=O)Nc2nccc(-c3sc(C(C)(C)C)nc3-c3cccc(NS(=O)(=O)c4c(F)cccc4F)c3F)n2)cc1 [QHL-086-dabrafenib]', '> 20000 µg/mL'),
  ('C[C@@H](NC(=O)CCOCCOCCNC(=O)CCN1C(=O)C=CC1=O)C(=O)N[C@H](C)C(=O)N[C@H](CC(N)=O)C(=O)Nc1ccc(COC(=O)Nc2c(-c3nc4ccc(N5CCN(C)CC5)cc4[nH]3)c(=O)[nH]c3cccc(F)c23)cc1 [QHL-086 - Dovitinib]', '> 20000 µg/mL'),
  ('CC(NC(=O)CCCCCN1C(=O)C=CC1=O)C(=O)NC(C)C(=O)NC(CC(N)=O)C(=O)Nc1ccc(COC(=O)N2CC3(C2)C(=O)[O][Pt-2]([NH3+])([NH3+])[O]C3=O)cc1 (centres unmarked) [QHL-140-N-CBP]', '> 10000 µg/mL'),
  ('C[C@H](NC(=O)CCOCCOCCNC(=O)CCN1C(=O)C=CC1=O)C(=O)N[C@@H](C)C(=O)N[C@@H](CC(N)=O)C(=O)N[C@@H](Cc1cc(I)c(Oc2ccc(O)c(I)c2)c(I)c1)C(=O)O [QHL-157-T3] ({Propanoyl(3-maleimido)-PEG2}-AAN[Thyronine(3,5,3''-I3)]-OH)', '> 10000 µg/mL');

Qu. Need solubility of C[C@@H](NC(=O)CCOCCOCCOCCNC(=O)CCN1C(=O)C=CC1=O)C(=O)N[C@H](C)C(=O)N[C@H](CC(N)=O)C(=O)Nc1ccc(COC(=O)Nc2nccc(-c3sc(C(C)(C)C)nc3-c3cccc(CS(=O)(=O)c4c(F)cccc4F)c3F)n2)cc1 [QHL-089-dabrafenib] , thanks.
Ans. > 20000 µg/mL

Qu. Look up solubility: C[C@H](NC(=O)CCCCCN1C(=O)C=CC1=O)C(=O)N[C@@H](C)C(=O)N[C@@H](CC(N)=O)C(=O)N[C@@H](Cc1cc(I)c(Oc2ccc(O)c(I)c2)c(I)c1)C(=O)O [QHL-150-T3] ({Hexanoyl(6-maleimido)}-AAN[Thyronine(3,5,3'-I3)]-OH)
Ans. > 10000 µg/mL
